- SYSTEM_UNDER_TEST: CCR5 (Homo sapiens)
- Construct: expressed in transfected cells
- Sequence (P51681 whole entry): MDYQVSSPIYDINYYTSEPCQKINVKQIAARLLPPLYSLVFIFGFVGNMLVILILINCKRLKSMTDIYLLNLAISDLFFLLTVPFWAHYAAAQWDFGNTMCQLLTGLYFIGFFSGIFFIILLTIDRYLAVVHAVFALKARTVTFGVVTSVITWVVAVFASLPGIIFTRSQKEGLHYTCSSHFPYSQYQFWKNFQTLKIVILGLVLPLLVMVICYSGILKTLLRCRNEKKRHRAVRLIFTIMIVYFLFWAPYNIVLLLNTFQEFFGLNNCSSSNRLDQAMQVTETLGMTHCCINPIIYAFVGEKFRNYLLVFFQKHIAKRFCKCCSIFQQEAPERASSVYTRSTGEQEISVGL
- ASSAY_SUMMARY: Figure S2a opioid peptide screen on chemokine receptors
- Assay type: cell-based
- Parameters: dose or concentration left out as unconfirmed
- EXPERIMENTAL_CONDITIONS: replicate 2, read-out: CCR5 activity, ctrl+ = 100
PROPERTY: activation (%)
Give the value in % but do not write % after it.

C[C@H](NC(=O)CNC(=O)[C@@H](NC(=O)[C@H](Cc1ccccc1)NC(=O)CNC(=O)CNC(=O)[C@@H](N)Cc1ccccc1)[C@@H](C)O)C(=O)N[C@@H](CCCNC(=N)N)C(=O)N[C@@H](CCCCN)C(=O)N[C@@H](CO)C(=O)N[C@@H](C)C(=O)N[C@@H](CCCNC(=N)N)C(=O)N[C@@H](CCCCN)C(N)=O [Nociceptin 1-13]; -0.592
CC(C)C[C@H](NC(=O)[C@H](CCCCN)NC(=O)[C@H](CCCN=C(N)N)NC(=O)[C@H](C)NC(=O)[C@H](CO)NC(=O)[C@H](CCCCN)NC(=O)[C@H](CCCN=C(N)N)NC(=O)[C@H](C)NC(=O)CNC(=O)[C@@H](NC(=O)[C@H](Cc1ccccc1)NC(=O)CNC(=O)CNC(=O)[C@@H](N)Cc1ccccc1)[C@@H](C)O)C(=O)N[C@@H](C)C(=O)N[C@@H](CC(N)=O)C(=O)N[C@@H](CCC(N)=O)C(=O)O [Nociceptin]; -0.199

Now take the following compound into account.
Request: Quick one: activation for CC(C)C[C@H](NC(=O)[C@H](Cc1ccccc1)NC(=O)CNC(=O)CNC(=O)[C@@H](N)Cc1ccc(O)cc1)C(=O)N[C@@H](CCCN=C(N)N)C(=O)N[C@@H](CCCN=C(N)N)C(=O)N[C@@H](CCC(N)=O)C(=O)N[C@@H](Cc1ccccc1)C(=O)N[C@@H](CCCCN)C(=O)N[C@H](C(=O)N[C@H](C(=O)N[C@H](C(=O)O)[C@@H](C)O)C(C)C)C(C)C [Dynorphin B] ?
Response: 0.0962
